# STUDY_TARGET: IL-23 (human, p19/p40 heterodimer) (Homo sapiens, UniProt Q9NPF7;P29460 SEQ:20-189,SEQ:23-328)
# Sequence (Q9NPF7 20-189, chain 1 of 2): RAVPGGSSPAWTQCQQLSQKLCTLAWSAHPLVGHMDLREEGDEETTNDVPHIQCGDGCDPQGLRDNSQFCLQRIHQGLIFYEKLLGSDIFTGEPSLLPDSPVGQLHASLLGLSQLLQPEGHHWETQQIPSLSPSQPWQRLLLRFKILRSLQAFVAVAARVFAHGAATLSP
# Sequence (P29460 23-328, chain 2 of 2): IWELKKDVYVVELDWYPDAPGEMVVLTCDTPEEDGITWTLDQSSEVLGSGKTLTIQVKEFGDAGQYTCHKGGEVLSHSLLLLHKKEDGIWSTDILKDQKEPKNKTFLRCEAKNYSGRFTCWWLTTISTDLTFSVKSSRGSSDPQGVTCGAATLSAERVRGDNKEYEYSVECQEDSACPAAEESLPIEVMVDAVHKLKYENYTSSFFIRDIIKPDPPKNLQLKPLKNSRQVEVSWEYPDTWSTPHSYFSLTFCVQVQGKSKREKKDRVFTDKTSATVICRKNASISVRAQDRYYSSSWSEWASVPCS
# TEST_DESCRIPTION: competition; direct +tRNA 117 nM
# DETAILS: tags: R&D Systems, carrier free
PROPERTY_NAME: Kd (nM)
// return numeric value only (unit: nM, not printed)

Give the reported Kd for this binder. GGCAAGUAAUUGGGGAGUGCGGGCGGGG (mixed, deoxy A,G; 2'-OMe C,U) [ARC792] 11

Data provenance is patent US20060193821.
